The origin of these recorded values is paper PMC2168396.

Tested on: the molecule itself
Test method notes: SEC + other: NMR

Protein	stoichiometry N
talin 2300–2541 V2376D (domain or fragment, mouse, UniProt P26039 2300-2541, looked up) DPTVIAENELLGAAAAIEAAAKKLEQLKPRAKPKEADESLNFEEQILEAAKSIAAATSALVKAASAAQRELVAQGKDGAIPANALDDGQWSQGLISAARMVAAATNNLCEAANAAVQGHASQEKLISSAKQVAASTAQLLVACKVKADQDSEAMKRLQAAGNAVKRASDNLVKAAQKAAAFEDQENETVVVKEKMVGGIAQIIAAQEEMLRKERELEEARKKLAQIRQQQYKFLPSELRDEH	2
talin 2334–2541 (upstream helix deleted) (domain or fragment, mouse, UniProt P26039 2334-2541, looked up) EADESLNFEEQILEAAKSIAAATSALVKAASAAQRELVAQGKVGAIPANALDDGQWSQGLISAARMVAAATNNLCEAANAAVQGHASQEKLISSAKQVAASTAQLLVACKVKADQDSEAMKRLQAAGNAVKRASDNLVKAAQKAAAFEDQENETVVVKEKMVGGIAQIIAAQEEMLRKERELEEARKKLAQIRQQQYKFLPSELRDEH	2
talin 2300–2541 R2510A (domain or fragment, mouse, UniProt P26039 2300-2541, looked up) DPTVIAENELLGAAAAIEAAAKKLEQLKPRAKPKEADESLNFEEQILEAAKSIAAATSALVKAASAAQRELVAQGKVGAIPANALDDGQWSQGLISAARMVAAATNNLCEAANAAVQGHASQEKLISSAKQVAASTAQLLVACKVKADQDSEAMKRLQAAGNAVKRASDNLVKAAQKAAAFEDQENETVVVKEKMVGGIAQIIAAQEEMLAKERELEEARKKLAQIRQQQYKFLPSELRDEH	2
